PROTOCOL: SD rat absorption test (pharmacokinetics)
Format: in vivo, SD rats
TEST CONTEXT: Sprague-Dawley, rat, plasma; male SD rats, single oral 12 mg/kg
Experimental: According to the Technical Guidelines for Non-clinical Pharmacokinetic Studies of Drugs and the results of in vitro metabolic species difference studies, liquid chromatography-tandem mass spectrometry (LC-MS/MS) was used in this pharmacokinetic study to fully verify the analytical method for the determination of ILB-2109 content in plasma (EDTA-K2 anticoagulation) of Sprague-Dawley rats and cynomolgus monkeys. The linear range of the method was 20.0~20000 nM. […]
READOUT: AUC(0-t) (µM·h)
# number only, unit µM·h dropped from output

Inquiry: Fill blank: measured AUC(0-t) of the molecule "Cc1cc(-c2c(-c3ccccc3)nc(N)n3nc(CO)nc23)cc(C(F)(F)F)n1" is ____.
Reply text: 58.9

---

PROTOCOL: SD rat absorption test (pharmacokinetics)
Assay type: in vivo, SD rats
TEST CONTEXT: Sprague-Dawley, rat, plasma; male SD rats, single intravenous injection 2 mg/kg; read-out: steady-state apparent volume of distribution (Vdss)
READOUT: Vd (L/kg)
# number only, unit L/kg dropped from output

Inquiry: Fill blank: measured Vd of the molecule "Cc1cc(-c2c(-c3ccccc3)nc(N)n3nc(CO)nc23)cc(C(F)(F)F)n1" is ____.
Reply text: 0.681

---

PROTOCOL: SD rat absorption test (pharmacokinetics)
Assay type: in vivo, SD rats
TEST CONTEXT: Sprague-Dawley, rat, plasma; male SD rats, single oral 12 mg/kg; read-out: peak concentrations (Cmax)
READOUT: Cmax (µM)
# number only, unit µM dropped from output

Inquiry: Fill blank: measured Cmax of the molecule "Cc1cc(-c2c(-c3ccccc3)nc(N)n3nc(CO)nc23)cc(C(F)(F)F)n1" is ____.
Reply text: 23.8

---

PROTOCOL: 4-week repeated-dose toxicity test in rats
Set-up: species or system SD rats
TEST CONTEXT: both sexes, Sprague-Dawley, rat, in vivo, po; SD rats, intragastric, 28 consecutive days
READOUT: MTD at 28 days (mg/kg)
# number only, unit mg/kg dropped from output

Inquiry: Fill blank: measured MTD at 28 days of the compound "Cc1cc(-c2c(-c3ccccc3)nc(N)n3nc(CO)nc23)cc(C(F)(F)F)n1" is ____.
Reply text: 600

---

PROTOCOL: SD rat absorption test (pharmacokinetics)
Assay type: in vivo, SD rats
TEST CONTEXT: Sprague-Dawley, rat, plasma; male SD rats, single intravenous injection 2 mg/kg
READOUT: AUC(0-t) (µM·h)
# number only, unit µM·h dropped from output

Inquiry: Fill blank: measured AUC(0-t) of the compound "Cc1cc(-c2c(-c3ccccc3)nc(N)n3nc(CO)nc23)cc(C(F)(F)F)n1" is ____.
Reply text: 13.3

---

PROTOCOL: Cynomolgus monkey absorption test (pharmacokinetics)
Format: in vivo, cynomolgus monkeys
TEST CONTEXT: both sexes, cynomolgus monkey, plasma, po, 15 mg/kg, cynomolgus monkeys, single oral 15 mg/kg; read-out: peak concentration (Cmax)
READOUT: Cmax (µM)
# number only, unit µM dropped from output

Inquiry: Fill blank: measured Cmax of the compound "Cc1cc(-c2c(-c3ccccc3)nc(N)n3nc(CO)nc23)cc(C(F)(F)F)n1" is ____.
Reply text: 33.9

---

PROTOCOL: SD rat absorption test (pharmacokinetics)
Assay type: in vivo, SD rats
TEST CONTEXT: Sprague-Dawley, rat, plasma; female SD rats, single oral 40 mg/kg
READOUT: AUC(0-t) (µM·h)
# number only, unit µM·h dropped from output

Inquiry: Fill blank: measured AUC(0-t) of the molecule Cc1cc(-c2c(-c3ccccc3)nc(N)n3nc(CO)nc23)cc(C(F)(F)F)n1 [ILB-2109] is ____.
Reply text: 915
